Measured abundance fitness of individual entries
B1: REST corepressor 3, residues 87 to 134; numbered along this chain, Q9P2K3 (parent)
chain: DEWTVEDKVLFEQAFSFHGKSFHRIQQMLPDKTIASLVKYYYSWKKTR

- Variants of: B1
- test: abundance fitness (aPCA) (normalised: wild type 0, dead -1); higher = more abundant; growth selection in yeast, the domain comes from the species named
- study conditions: Homo sapiens
// keep it numeric: no unit symbol after the value

Past entries and their recorded results:
• DEWTVEDKVLFEQAFSFHGKSFHRIQQMLPDKTIASLVKYRYSWKKTR = -0.654
• DEWTVEDKVLFEQAFSFHGKQFHRIQQMLPDKTIASLVKYYYSWKKTR = 0.303
• DEWTVEDKVLFEQAFSFHGKSFHRIQQMLQDKTIASLVKYYYSWKKTR = -0.716
• DEWTVEDKVLFEQAFSFHGKSFHRIQQMLPDKTIASLVKYYYEWKKTR = -0.084
• DEWTVEDKVLFEQAFSFHGKSFHRIQQMLPRKTIASLVKYYYSWKKTR = -0.253
• DEWTSEDKVLFEQAFSFHGKSFHRIQQMLPDKTIASLVKYYYSWKKTR = -0.3
• DEWTVEDKLLFEQAFSFHGKSFHRIQQMLPDKTIASLVKYYYSWKKTR = -0.28
• DVWTVEDKVLFEQAFSFHGKSFHRIQQMLPDKTIASLVKYYYSWKKTR = -0.859

Entry `DEWVVEDKVLFEQAFSFHGKSFHRIQQMLPDKTIASLVKYYYSWKKTR` , abundance fitness reported as -0.756

Entry `DEWTVEQKVLFEQAFSFHGKSFHRIQQMLPDKTIASLVKYYYSWKKTR` , abundance fitness reported as -0.156

Entry `DEWTVEPKVLFEQAFSFHGKSFHRIQQMLPDKTIASLVKYYYSWKKTR` , abundance fitness reported as -0.411
